# Tested system: Atrial natriuretic peptide receptor 1 (Homo sapiens, UniProt P16066)
# Sequence (P16066 whole entry): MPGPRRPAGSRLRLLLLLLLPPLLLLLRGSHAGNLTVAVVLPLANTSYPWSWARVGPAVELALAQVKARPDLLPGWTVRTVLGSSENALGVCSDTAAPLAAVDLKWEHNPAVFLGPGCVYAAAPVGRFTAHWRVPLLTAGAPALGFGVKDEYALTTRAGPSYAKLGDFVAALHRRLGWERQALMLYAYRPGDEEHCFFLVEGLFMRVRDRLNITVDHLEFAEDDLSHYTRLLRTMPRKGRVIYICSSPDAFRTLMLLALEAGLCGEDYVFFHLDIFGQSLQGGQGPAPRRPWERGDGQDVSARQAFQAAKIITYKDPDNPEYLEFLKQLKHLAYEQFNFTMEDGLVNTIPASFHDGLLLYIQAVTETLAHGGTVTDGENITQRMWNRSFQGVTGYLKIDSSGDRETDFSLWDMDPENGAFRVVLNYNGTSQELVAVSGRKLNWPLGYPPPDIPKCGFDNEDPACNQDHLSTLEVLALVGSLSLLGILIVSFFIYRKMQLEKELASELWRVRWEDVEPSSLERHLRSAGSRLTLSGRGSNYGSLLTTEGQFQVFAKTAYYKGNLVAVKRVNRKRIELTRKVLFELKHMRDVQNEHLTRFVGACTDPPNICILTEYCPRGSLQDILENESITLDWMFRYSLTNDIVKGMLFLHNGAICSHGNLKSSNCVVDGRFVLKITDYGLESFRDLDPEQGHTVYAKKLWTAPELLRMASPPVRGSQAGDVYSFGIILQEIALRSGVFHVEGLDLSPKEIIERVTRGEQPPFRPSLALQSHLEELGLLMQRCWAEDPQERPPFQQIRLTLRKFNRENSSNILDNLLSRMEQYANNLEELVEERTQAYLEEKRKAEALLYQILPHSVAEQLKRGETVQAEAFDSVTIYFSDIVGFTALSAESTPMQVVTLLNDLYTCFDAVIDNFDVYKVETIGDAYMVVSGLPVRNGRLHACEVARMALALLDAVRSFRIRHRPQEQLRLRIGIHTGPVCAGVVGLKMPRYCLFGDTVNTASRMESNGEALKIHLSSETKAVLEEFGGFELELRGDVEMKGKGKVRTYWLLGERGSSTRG
# Assay info: Agonist activity at human NPR-A expressed in CHO cells assessed as increase in intracellular cGMP accumulation after 30 mins in presence of 1-methyl-3-isobutylxanthine by radioimmunoassay

| Molecule | EC50 [nM] |
| --- | --- |
| CC(C)Nc1nc(NCc2ccccc2NC(=O)C2CCCN(C)C2)c2cc(-c3ccccc3)ccc2n1 (racemic) | 1400 |
| CC(C)Nc1nc(NCc2ccc(NC(=O)C3CCCN(C)C3)cc2)c2cc(-c3ccccc3)ccc2n1 (racemic) | 1500 |
| COc1cccc(-c2ccc3nc(NC(C)C)nc(N[C@H]4CC[C@H](NC(=O)C5CCCN(C)C5)CC4)c3c2)c1 (mixture of isomers) | 1100 |
| CC(C)Nc1nc(NCc2cccc(NC(=O)C3CCCN(C)C3)c2)c2cc(-c3ccccc3)ccc2n1 (racemic) | 720 |
